Overview of reported inhibition at 1500 g/ha across a group of compounds:
# Test system: Medicago sativa
# method description: Herbicidal activity against Medicago sativa at 1.5 kg/hectare administered postemergence of first true leaf measured after 10 days
# Assay type: functional
# applied conditions: post-emergence, 240 h
readout type: inhibition at 1500 g/ha (%)

| compound structure string | measured number |
| --- | --- |
| CCOCCOC(=O)c1c(CC)nn(-c2ccc(Cl)cc2)c1N | 0 |
| CCOCCOC(=O)/C(C#N)=C(\NNc1c(Cl)cc(Cl)cc1Cl)C(C)C | 21 |
| CCOCCOC(=O)c1c(SC)nn(-c2ccc([N+](=O)[O-])cc2)c1N | 38.3 |
| CCOCCOC(=O)c1c(SC)nn(-c2ccc(Cl)cc2)c1N | 0 |
| CCOCCOC(=O)/C(C#N)=C(\NNc1c(Cl)cccc1Cl)C(C)C | 1.4 |
| CCOCCOC(=O)c1c(SC)nn(-c2ccc(C)cc2)c1N | 0 |
| CCOCCOC(=O)/C(C#N)=C(/CC)NNc1c(Cl)cccc1Cl | 2.3 |
| CCOCCOC(=O)/C(C#N)=C(/CC)NNc1c(Cl)cc(Cl)cc1Cl | 5.6 |
| CCOCCOC(=O)/C(C#N)=C(\NNc1cc(Cl)c(Cl)cc1Cl)C(C)C | 3.7 |
| CCOCCOC(=O)/C(C#N)=C(\NCc1ccc(Cl)nc1)SC | 55.3 |
| CCOCCOC(=O)c1c(SC)nn(-c2ccc(C)cc2C)c1N | 0 |
| CCOCCOC(=O)/C(C#N)=C(/CC)NNc1ccc(Cl)cc1Cl | 0 |
| CCOCCOC(=O)/C(C#N)=C(/CC)NNc1cccc(Cl)c1Cl | 3.3 |
| CCOCCOC(=O)c1c(C(C)C)nn(-c2ccc(Cl)cc2)c1N | 0 |

###

# Tested on: Bel-7402
# method description: Antitumor activity against human Bel7402 cells at 1000 uM/L after 72 hrs by MTT assay
# Format: functional
# applied conditions: Bel-7402, 72 h
Tag: true if measured inhibition at 1000 µM is not below 50%, false if it is.

| compound structure string | tested on | assigned label |
| --- | --- | --- |
| CCOCCOC(=O)/C(C#N)=C(\NNc1cc(Cl)c(Cl)cc1Cl)C(C)C | Bel-7402 | true |
| CCOCCOC(=O)/C(C#N)=C(/CC)NNc1c(Cl)cccc1Cl | Bel-7402 | true |
| CCOCCOC(=O)c1c(SC)nn(-c2ccc(C)cc2C)c1N | Bel-7402 | false |
| CCOCCOC(=O)/C(C#N)=C(/CC)NNc1cccc(Cl)c1Cl | Bel-7402 | true |
| CCOCCOC(=O)/C(C#N)=C(\NNc1c(Cl)cc(Cl)cc1Cl)C(C)C | Bel-7402 | true |
| CCOCCOC(=O)c1c(SC)nn(-c2ccc(Cl)cc2Cl)c1N | Bel-7402 | false |
| CCOCCOC(=O)/C(C#N)=C(\NNc1ccc(Cl)cc1Cl)C(C)C | Bel-7402 | false |
| CCOCCOC(=O)c1c(CC)nn(-c2ccc([N+](=O)[O-])cc2)c1N | Bel-7402 | false |
| CCOCCOC(=O)c1c(SC)nn(-c2ccc([N+](=O)[O-])cc2)c1N | Bel-7402 | false |
| CCOCCOC(=O)/C(C#N)=C(/CC)NNc1cc(Cl)c(Cl)cc1Cl | Bel-7402 | true |
| CCOCCOC(=O)c1c(C(C)C)nn(-c2ccc(Cl)cc2Cl)c1N | Bel-7402 | false |
| CCOCCOC(=O)/C(C#N)=C(/CC)NNc1ccc(Cl)cc1Cl | Bel-7402 | false |
| CCOCCOC(=O)/C(C#N)=C(\NNc1c(Cl)cccc1Cl)C(C)C | Bel-7402 | false |
| CCOCCOC(=O)/C(C#N)=C(/CC)NNc1c(Cl)cc(Cl)cc1Cl | Bel-7402 | true |
